subject-of-test: human α1G T-type channels (Homo sapiens, UniProt O43497)
Sequence (O43497 whole entry): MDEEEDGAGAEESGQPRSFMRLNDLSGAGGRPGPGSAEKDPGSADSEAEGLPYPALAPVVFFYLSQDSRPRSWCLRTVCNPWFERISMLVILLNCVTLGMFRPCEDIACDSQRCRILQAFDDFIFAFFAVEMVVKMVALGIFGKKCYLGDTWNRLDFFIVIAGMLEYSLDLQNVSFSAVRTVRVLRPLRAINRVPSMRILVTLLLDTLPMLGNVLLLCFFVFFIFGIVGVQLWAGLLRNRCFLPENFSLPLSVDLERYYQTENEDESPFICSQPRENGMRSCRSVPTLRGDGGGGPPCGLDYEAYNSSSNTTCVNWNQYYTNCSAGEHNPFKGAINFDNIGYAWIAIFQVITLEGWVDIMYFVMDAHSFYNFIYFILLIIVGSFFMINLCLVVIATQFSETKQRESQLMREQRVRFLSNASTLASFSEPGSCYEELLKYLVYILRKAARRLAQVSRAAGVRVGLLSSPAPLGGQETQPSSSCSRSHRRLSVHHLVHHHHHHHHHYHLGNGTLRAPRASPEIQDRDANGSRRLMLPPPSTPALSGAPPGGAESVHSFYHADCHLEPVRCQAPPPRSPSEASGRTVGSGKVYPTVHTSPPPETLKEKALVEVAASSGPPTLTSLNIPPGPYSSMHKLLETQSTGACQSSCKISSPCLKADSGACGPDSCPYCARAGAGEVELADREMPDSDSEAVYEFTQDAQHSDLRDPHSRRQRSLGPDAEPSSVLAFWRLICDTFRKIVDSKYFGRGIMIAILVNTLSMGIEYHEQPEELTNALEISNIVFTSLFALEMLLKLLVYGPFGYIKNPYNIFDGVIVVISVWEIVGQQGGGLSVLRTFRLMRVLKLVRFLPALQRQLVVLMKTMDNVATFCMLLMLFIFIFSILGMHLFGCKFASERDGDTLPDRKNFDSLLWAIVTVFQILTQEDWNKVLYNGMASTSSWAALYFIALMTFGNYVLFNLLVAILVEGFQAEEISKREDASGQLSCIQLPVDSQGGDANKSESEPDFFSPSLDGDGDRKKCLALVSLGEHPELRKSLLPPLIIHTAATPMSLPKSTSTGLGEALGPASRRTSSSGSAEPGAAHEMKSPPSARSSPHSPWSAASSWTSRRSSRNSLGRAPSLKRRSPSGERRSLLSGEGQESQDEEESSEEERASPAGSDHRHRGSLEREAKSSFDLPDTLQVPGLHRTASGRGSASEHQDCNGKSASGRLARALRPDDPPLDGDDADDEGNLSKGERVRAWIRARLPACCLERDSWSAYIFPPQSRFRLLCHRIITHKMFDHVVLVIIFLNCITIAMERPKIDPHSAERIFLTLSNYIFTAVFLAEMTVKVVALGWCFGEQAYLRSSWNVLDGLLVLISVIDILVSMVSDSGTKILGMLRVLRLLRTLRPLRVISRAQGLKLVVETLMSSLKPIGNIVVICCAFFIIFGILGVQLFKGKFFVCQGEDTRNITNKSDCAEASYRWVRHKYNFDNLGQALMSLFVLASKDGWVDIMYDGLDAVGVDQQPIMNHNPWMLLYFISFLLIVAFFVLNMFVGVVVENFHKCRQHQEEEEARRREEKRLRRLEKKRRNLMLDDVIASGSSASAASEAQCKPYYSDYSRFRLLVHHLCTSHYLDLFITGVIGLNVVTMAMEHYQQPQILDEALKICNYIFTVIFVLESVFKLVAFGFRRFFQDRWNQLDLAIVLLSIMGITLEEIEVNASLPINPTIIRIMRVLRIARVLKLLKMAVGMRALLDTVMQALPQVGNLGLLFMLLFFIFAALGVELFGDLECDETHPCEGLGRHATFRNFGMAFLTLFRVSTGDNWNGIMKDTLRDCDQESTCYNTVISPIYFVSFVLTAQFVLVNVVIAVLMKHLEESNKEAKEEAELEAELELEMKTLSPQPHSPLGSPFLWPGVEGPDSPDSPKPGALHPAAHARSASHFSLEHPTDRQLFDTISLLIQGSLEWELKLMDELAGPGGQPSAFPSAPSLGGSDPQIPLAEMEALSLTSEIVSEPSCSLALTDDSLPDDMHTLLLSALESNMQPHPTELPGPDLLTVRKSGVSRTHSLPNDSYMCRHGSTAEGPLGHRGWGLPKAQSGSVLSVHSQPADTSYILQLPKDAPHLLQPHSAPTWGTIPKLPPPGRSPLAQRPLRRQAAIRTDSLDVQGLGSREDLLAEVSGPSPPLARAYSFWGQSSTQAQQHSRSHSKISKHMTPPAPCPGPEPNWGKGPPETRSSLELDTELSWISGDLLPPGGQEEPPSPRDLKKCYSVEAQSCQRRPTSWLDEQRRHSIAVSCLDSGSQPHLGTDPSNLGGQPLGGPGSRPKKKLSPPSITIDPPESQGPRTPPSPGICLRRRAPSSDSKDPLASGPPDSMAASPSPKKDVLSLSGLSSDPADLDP
assay-text: T-type calcium channel block, whole cell patch clamp (α1G)
condition: HEK cells stably expressing human α1G; mainly non-inactivated protocol; values above 10 μM represented as 10 μM, values below 0.30 μM represented as 0.30 μM
pIC50: −log10 of the molar value.
Where pIC50 equals or exceeds 6, the correct label is met; where it does not, the label is not met.

Solved cases below.
COc1cc(F)cc(C(=O)NC[C@H]2CC[C@@H](NCC(=O)NC3(C)CCC3)CC2)c1 | not met
O=C(C[C@H]1CC[C@@H](NC(=O)C2CCNCC2)CC1)Nc1cc(C(F)(F)F)cc(C(F)(F)F)c1 | not met
O=C(NC[C@H]1CC[C@@H](NCc2c(F)cccc2Cl)CC1)c1cc(C(F)(F)F)cc(C(F)(F)F)c1 | met
O=C(NC[C@H]1CC[C@H](NCCNS(=O)(=O)C(F)(F)F)CC1)c1cc(C(F)(F)F)cc(C(F)(F)F)c1 | not met

(Q) Is pIC50 at least 6? Consider `Cc1cc(F)cc(C(=O)NC[C@H]2CC[C@@H](NCC(=O)NC(C)(C)C)CC2)c1`
(A) not met

(Q) Continue with `C#CC(CC)(CC)NC(=O)CN[C@H]1CC[C@@H](CNC(=O)c2cc(C(F)(F)F)cc(C(F)(F)F)c2)CC1`
(A) met

(Q) Please answer likewise for `O=C(NC[C@H]1CC[C@H](NCc2ccccc2O)CC1)c1cc(C(F)(F)F)cc(C(F)(F)F)c1`
(A) met

(Q) Here is the next molecule: `COc1cc(F)cc(C(=O)NC[C@H]2CC[C@H](NCC(=O)N3CCOCC3(C)C)CC2)c1`
(A) not met

(Q) Another molecule to look at: `CCC(CC)NC(=O)CN[C@H]1CC[C@@H](CNC(=O)c2cc(C(F)(F)F)cc(C(F)(F)F)c2)CC1`
(A) met

(Q) Now the same for `NC1(C(=O)N[C@H]2CC[C@@H](CNC(=O)c3cc(F)cc(C(F)(F)F)c3)CC2)CCCC1`
(A) not met

(Q) Consider next the molecule `CC(C)(C)NC(=O)CN[C@H]1CC[C@@H](CNC(=O)c2cccc(C(F)(F)F)c2)CC1` in the same way.
(A) not met

(Q) // query: `O=C(NC[C@H]1CC[C@H](NCc2c(O)cccc2F)CC1)c1cc(C(F)(F)F)cc(C(F)(F)F)c1`
(A) met
